# Tested on: OVCAR-3 ovarian
# procedure_details: NCI-60 one-dose screen, 48 h
# conditions: 10 µM unless noted
About 83,000 compounds went through this panel and 20% of them were active in at least one assay; those are over-represented in the sample as a whole. Activity calls are given as the source filed them. How the source made its calls: active means growth percent below 10; inactive means the rest.
Classes used: T (active), F (inactive)

given_smiles=O=C(NCCN1CCOCC1)OCc1nc2nc(Cl)nc(N3CCOCC3)c2[nH]1 assigned_class=T
given_smiles=COC(=O)N[C@H]1CCc2cc(OC)c(OC)c(OC)c2-c2ccc(SC)c(=O)cc21 assigned_class=T
given_smiles=Clc1nc(Nc2ccccc2)nc(Nc2ccccc2)n1 assigned_class=F
given_smiles=CCc1c(Nc2ccc(C)cc2)nc(N)[nH]c1=O assigned_class=F
given_smiles=COc1ccc(C(=O)c2cc3c(N)c(C(=O)Nc4ccc(Br)cc4)sc3nc2C)cc1 assigned_class=F
given_smiles=Clc1ccc2c(c1)c(-c1ccccc1)nc1nncn12 assigned_class=F
given_smiles=CCCCCN1C=C/C(=C\C(=O)N(C)c2cccc3ccccc23)c2ccccc21 assigned_class=F

----------
# Test system: MOLT-4 leukemia
# procedure_details: NCI-60 one-dose screen, 48 h (100 = growth as untreated, 0 = no growth, -100 = all killed)
# conditions: 10 µM unless noted
Compounds without any hit were thinned out: in the full panel of roughly 83,000, 20% have a hit.
growth listing for selected compounds.
recorded_metric: growth (%)

compound=COc1cnccc1-c1nc2ccc3[nH]ncc3c2c2c1CCCC2 measured_value=28.2
compound=COc1ccc(Cn2nc3c(c2-c2cc(OC)c(OC)c(OC)c2)-c2oncc2CC3)cc1 measured_value=77.9
compound=COc1ccc2c(c1)OC13Oc4cc(OC)ccc4C=C1CCCC3=C2 measured_value=-3.56
compound=ClCC1(Cn2cnc3c(Cl)nc(Cl)nc32)COC1 measured_value=87.7
compound=Cc1cc2nc(-c3ccccc3)c(-c3ccccc3)nc2cc1C measured_value=89
compound=Cc1ccc(-c2c(Br)c(OC(=O)CO[C@@H]3C[C@H](C)CC[C@H]3C(C)C)c(-c3ccc(C)cc3C)c(Br)c2OC(=O)CO[C@H]2C[C@@H](C)CC[C@@H]2C(C)C)c(C)c1 measured_value=97.6
compound="OC(c1ccccc1)c1ccccn1 (centres undefined)" measured_value=96.8
compound="COc1ccc(C2=NN(C(C)=O)C(c3cn(Cc4ccc(Cl)cc4)c4ccccc34)C2)cc1 (centres undefined)" measured_value=67.8
compound=CC(=O)O[C@H]1CC[C@@]2(C)[C@@H](CC[C@@H]3[C@@H]2CC[C@@]2(C)[C@H]3CC[C@]2(O)C(C)=O)C1 measured_value=97.6

----------
# System: SK-MEL-2 melanoma
# procedure_details: NCI-60 one-dose screen, 48 h
# conditions: 10 µM unless noted
Compounds without any hit were thinned out: in the full panel of roughly 83,000, 20% have a hit. Calls of active or inactive are those of the source. The calls were made as follows: active = growth percent below 10; inactive = the rest.
Classes used: Y (active), N (inactive)

compound=CC(=O)c1c[nH]c2ccc(-c3ccnc(Nc4ccc(NC(=O)C5CCCC5)c(CN5CCOCC5)c4)n3)cc12 assigned_class=Y
compound=Fc1ccc2nc3c(cc2c1)CSc1nnc(-c2ccc[nH]c2=S)n1N3 assigned_class=N
compound="CCCCCCC/C=C/[C@H]1O[C@]2(O)C(=O)C=C3C[C@@H](O[C@@H]4O[C@H](CO)[C@@H](O)C(O)[C@@H]4O)C[C@@H]3[C@H]2C=C1C (some centres undefined)" assigned_class=Y
compound=COc1cc(COC(=O)CCCCC[P+](c2ccccc2)(c2ccccc2)c2ccccc2)c(OC)c2c1OCO2 assigned_class=N
